molecular target: hGARP-proTGFβ1 complex on cells (human, UniProt Q14392 20-662; P01137 30-390); assay: cell-based or functional assay
Sequence (Q14392 20-662 limits assumed, chain 1 of 2): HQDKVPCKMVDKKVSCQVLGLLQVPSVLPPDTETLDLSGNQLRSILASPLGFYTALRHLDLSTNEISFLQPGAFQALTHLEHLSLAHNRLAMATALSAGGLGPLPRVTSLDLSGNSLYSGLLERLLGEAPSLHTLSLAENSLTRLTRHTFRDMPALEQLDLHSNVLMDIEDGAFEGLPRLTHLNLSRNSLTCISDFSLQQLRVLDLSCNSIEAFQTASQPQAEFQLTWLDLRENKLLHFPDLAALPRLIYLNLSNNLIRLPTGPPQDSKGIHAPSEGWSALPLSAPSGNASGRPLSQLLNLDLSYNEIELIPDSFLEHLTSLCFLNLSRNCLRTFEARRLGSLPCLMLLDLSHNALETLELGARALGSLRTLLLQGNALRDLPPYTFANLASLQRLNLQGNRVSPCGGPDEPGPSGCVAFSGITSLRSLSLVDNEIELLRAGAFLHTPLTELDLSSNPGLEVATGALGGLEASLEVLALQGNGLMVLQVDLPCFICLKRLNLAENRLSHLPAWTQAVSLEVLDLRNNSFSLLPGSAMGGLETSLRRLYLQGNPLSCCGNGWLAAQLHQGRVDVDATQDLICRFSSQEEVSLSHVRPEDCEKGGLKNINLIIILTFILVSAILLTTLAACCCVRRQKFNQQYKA
Sequence (P01137 30-390 limits assumed, chain 2 of 2): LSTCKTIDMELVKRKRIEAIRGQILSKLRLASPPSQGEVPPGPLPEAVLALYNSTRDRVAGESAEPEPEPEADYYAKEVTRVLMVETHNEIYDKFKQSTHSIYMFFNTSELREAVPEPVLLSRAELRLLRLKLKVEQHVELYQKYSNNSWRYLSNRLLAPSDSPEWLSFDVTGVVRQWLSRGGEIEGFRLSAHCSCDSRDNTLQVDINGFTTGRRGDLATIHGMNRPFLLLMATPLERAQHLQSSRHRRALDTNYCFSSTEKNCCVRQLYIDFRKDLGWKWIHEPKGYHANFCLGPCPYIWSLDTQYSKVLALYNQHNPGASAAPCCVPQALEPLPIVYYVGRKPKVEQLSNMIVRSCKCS
METRIC: IC50, reporter cell assay of TGFβ1 activation (pM)
The reply should be a number in pM, with the unit left off.

BINDER: Ab33 (antibody, IgG4, V domains shown) VH: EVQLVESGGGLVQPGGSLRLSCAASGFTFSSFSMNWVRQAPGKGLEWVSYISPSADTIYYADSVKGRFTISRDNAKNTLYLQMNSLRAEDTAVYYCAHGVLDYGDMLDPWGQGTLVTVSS VL: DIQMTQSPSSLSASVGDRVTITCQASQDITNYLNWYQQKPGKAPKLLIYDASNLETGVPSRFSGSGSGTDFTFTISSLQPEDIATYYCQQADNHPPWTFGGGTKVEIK
MEASURE UNIT: pM
REPORTED MEASUREMENT: 198

// query IC50, reporter cell assay of TGFβ1 activation value for entry Ab25 (antibody, V domains shown) VH: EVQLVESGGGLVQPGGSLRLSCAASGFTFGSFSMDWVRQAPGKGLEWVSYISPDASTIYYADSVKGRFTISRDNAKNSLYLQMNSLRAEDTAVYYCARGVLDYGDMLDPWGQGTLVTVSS VL: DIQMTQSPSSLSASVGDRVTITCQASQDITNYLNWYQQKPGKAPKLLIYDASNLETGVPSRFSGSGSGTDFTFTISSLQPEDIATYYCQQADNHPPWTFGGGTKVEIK
442

Consider next the binder Ab6 (antibody, human IgG4 S228P, kappa, V domains shown) VH: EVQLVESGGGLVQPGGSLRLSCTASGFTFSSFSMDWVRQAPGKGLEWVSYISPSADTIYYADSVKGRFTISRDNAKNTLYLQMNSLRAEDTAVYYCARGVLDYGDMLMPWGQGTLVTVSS VL: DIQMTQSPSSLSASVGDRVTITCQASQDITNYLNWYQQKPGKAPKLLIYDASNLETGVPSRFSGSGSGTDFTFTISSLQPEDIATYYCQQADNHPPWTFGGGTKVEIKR in the same way.
324

Consider next the binder Ab19 (antibody, IgG4, V domains shown) VH: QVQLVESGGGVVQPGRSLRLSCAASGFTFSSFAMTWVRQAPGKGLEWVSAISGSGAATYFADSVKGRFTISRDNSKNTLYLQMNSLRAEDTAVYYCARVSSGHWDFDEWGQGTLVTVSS VL: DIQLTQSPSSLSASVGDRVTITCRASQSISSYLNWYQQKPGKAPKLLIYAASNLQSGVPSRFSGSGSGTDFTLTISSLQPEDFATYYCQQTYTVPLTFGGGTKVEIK in the same way.
1340

Consider next the binder Ab20 (antibody, IgG4, V domains shown) VH: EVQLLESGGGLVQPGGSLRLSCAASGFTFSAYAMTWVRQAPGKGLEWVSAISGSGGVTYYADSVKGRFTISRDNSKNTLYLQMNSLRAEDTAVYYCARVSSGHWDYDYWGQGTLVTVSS VL: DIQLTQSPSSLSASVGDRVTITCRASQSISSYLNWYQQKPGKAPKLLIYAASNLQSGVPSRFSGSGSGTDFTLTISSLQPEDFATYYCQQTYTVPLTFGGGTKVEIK in the same way.
387
